Experimental Readout: melting point

Here is how some molecules turned out for melting point.
{"columns": ["Mol Smiles", "Experimental Readout", "Reading"],
 "data": [
  ["O=C1CC(c2ccnc(-c3nc(CO)cs3)c2)=Nc2ccc(-c3ccc(F)cc3)cc2N1", "melting point", "225 to 229 °C"],
  ["NC(=O)c1cccc(C2=Nc3ccc(C#Cc4ccccc4)cc3NC(=O)C2)c1", "melting point", "> 250 °C (dec.)"]
]}

Below: the item to evaluate.
Entry N#Cc1cccc(C2=Nc3ccc(-c4ccsc4)cc3NC(=O)C2)c1 ; melting point = 238 to 243 °C (dec.)
